measurement_target: Muscarinic acetylcholine receptor M4 (Homo sapiens)
assay_method_text: M4-linked GIRK flux change, two-sided – cell-based, HEK293 M4/GIRK, thallium flux, BTC-AM, M4 allosteric agonist project, primary screen (AID 625);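 further: thallium influx through GIRK channels coupled to M4 in HEK293 cells with BTC-AM dye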
experimental_conditions: at 10 µM, actives lie on both sides
Calls of active or inactive are those of the source.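 How the source made its calls: active means fluorescence slope after compound addition differing from the mean of all tested samples at 99.7% confidence, mostly higher but some lower; inactive means the rest.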
reported_property: fluorescence slope

Known fluorescence slope results, listed for orientation:
>>> result("O=c1cc(-c2ccc(Cl)cc2)[nH][nH]1")
"0.00862 (inactive)"
>>> result("CCCn1c(N2CCN(CC(=O)NCc3cccs3)CC2)nc2ccccc21")
"0.00415 (inactive)"
>>> result("O=C(CCn1c(=O)sc2ccccc21)NC1=NCCS1")
"0.00544 (inactive)"
>>> result("CCc1ccc2oc(-c3cc(N)ccc3Cl)nc2c1")
"0.006 (inactive)"
>>> result("CCOC(=O)CNC(=O)c1c(C)nn(-c2ccccc2)c1Cl")
"0.00495 (inactive)"

Query block: Entry `CN(Cc1cccs1)c1ncnc2sccc12` : reported fluorescence slope = ?
Result block: 0.00479 (inactive)

Query block: Entry `COc1ccc(-c2noc(-c3cc(Cl)ccc3Cl)n2)cc1OC` : reported fluorescence slope = ?
Result block: 0.00828 (inactive)

Query block: Entry `COc1ccccc1-c1ccc(Nc2cccc(C(C)=O)c2)nn1` : reported fluorescence slope = ?
Result block: 0.00562 (inactive)
